System: FES
Particulars: concentration: 1 μM, replicates: in singlicate; n = 1
Listed below: %Inh values for each entry.

>  <Compound>
CNC(=O)c1ccccc1Nc1nc(Nc2ccc(N3CCOCC3)cc2)ncc1Cl.Cl

>  <System under test>
FES

>  <Unit>
%

>  <%Inh>
62

$$$$
>  <Compound>
COC(=O)Nc1nc2ccc(Oc3ccc(NC(=O)Nc4cc(C(F)(F)F)ccc4F)cc3)cc2n1C.Cl

>  <System under test>
FES

>  <Unit>
%

>  <%Inh>
3

$$$$
>  <Compound>
CC(=O)N1CCN(c2ccc(Nc3nccc(-c4sc(C(C)C)nc4-c4cccc(NS(=O)(=O)c5cccc(Cl)c5)c4)n3)cn2)CC1

>  <System under test>
FES

>  <Unit>
%

>  <%Inh>
0

$$$$
>  <Compound>
c1ccc(Oc2ccc(Nc3ccnc4cc(-c5ccc(CNCCN6CCOCC6)o5)ccc34)cc2)nc1

>  <System under test>
FES

>  <Unit>
%

>  <%Inh>
5

$$$$
>  <Compound>
COc1cccc(-c2ccc3c(NC(=O)C4CC4)n[nH]c3n2)c1

>  <System under test>
FES

>  <Unit>
%

>  <%Inh>
0

$$$$
>  <Compound>
COc1ccc(-c2coc3ccc(-c4nnc(SCc5ccc(OC)c(C(F)(F)F)c5)o4)cc23)cc1

>  <System under test>
FES

>  <Unit>
%

>  <%Inh>
4

$$$$
>  <Compound>
O=C(Nc1cccc(-c2nn3ncccc3c2-c2ccnc(Nc3ccccc3)n2)c1)c1c(F)cccc1F

>  <System under test>
FES

>  <Unit>
%

>  <%Inh>
6

$$$$
>  <Compound>
Cc1ccc(C(=O)Nc2ccc(Nc3ccnc4cc(-c5nccs5)ccc34)cc2O)cc1.Cl

>  <System under test>
FES

>  <Unit>
%

>  <%Inh>
24

$$$$
>  <Compound>
CC(C)c1nc(-c2cccc(NS(=O)(=O)c3c(F)cccc3F)c2F)c(-c2ccnc(Nc3ccc(N4CCOCC4)nc3)n2)s1

>  <System under test>
FES

>  <Unit>
%

>  <%Inh>
23

$$$$
>  <Compound>
COc1cccc(NC(=O)NC2CCN(c3ccnc(Nc4cc(OC)c(OC)c(OC)c4)n3)C2)c1 (stereo not shown)

>  <System under test>
FES

>  <Unit>
%

>  <%Inh>
8

$$$$
>  <Compound>
CCn1c(-c2nonc2N)nc2c(C#CC(C)(C)O)nc(OC[C@H](N)c3ccccc3)cc21

>  <System under test>
FES

>  <Unit>
%

>  <%Inh>
0

$$$$
>  <Compound>
COc1ccc(CNC(=O)NC2CCN(c3ccnc(Nc4ccc(F)cc4)n3)CC2)cc1

>  <System under test>
FES

>  <Unit>
%

>  <%Inh>
0

$$$$
>  <Compound>
Fc1ccc(-c2ncn(C3CCNCC3)c2-c2ccnc(Oc3ccc(-c4ccccc4)cc3)n2)cc1

>  <System under test>
FES

>  <Unit>
%

>  <%Inh>
27

$$$$
>  <Compound>
COc1cc(Nc2nccc(N3CCC(NC(=O)Nc4cccc(C(C)=O)c4)C3)n2)cc(OC)c1OC (stereo not shown)

>  <System under test>
FES

>  <Unit>
%

>  <%Inh>
0

$$$$
>  <Compound>
COc1cc2c(cc1OCCN1CCNCC1)ncc1c3ccc(C#N)cc3[nH]c21

>  <System under test>
FES

>  <Unit>
%

>  <%Inh>
2

$$$$
>  <Compound>
CCc1ccc(-c2ccc3c(c2)-c2c(cnn2C)S(=O)(=O)N3C)cc1

>  <System under test>
FES;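 also: KINOMEscan kinase panel screen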

>  <Unit>
%

>  <%Inh>
0

$$$$
